# experimental target: Somatostatin receptor 1 (SSTR1) (human), P30872
# Sequence (P30872 whole entry): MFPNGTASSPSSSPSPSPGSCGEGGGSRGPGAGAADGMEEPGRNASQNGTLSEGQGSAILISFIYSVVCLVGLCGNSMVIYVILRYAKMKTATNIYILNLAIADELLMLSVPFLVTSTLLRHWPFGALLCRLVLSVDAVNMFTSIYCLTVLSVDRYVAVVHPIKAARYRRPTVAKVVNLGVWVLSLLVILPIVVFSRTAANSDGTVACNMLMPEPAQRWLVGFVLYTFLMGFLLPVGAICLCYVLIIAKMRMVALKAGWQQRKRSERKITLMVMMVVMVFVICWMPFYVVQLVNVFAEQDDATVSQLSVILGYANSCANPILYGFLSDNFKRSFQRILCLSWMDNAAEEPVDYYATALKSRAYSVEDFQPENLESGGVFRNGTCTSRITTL
# test details: competition with 125I-Tyr11 SST14
# test conditions: L-mesityl alanine (2,4,6-trimethylphenylalanine, Msa) in place of Phe6; D-Trp at position 7; disulfide bridge between the two cysteines
property measured: IC50 (nM)
Numbers only, in nM.

For PCKNFFWKTFTSCK [Cortistatin analogue 2] , what is its reported IC50?
14.1
